Below: a set of entries, each annotated with reported GI50.
Test system: MDA-MB-231 breast
testDetails: NCI tumour cell line growth inhibition, 48 h

Req: Provide only the value of recorded GI50 for `O=C(OC[C@H]1O[C@H](OC(=O)c2cc(O)c(O)c(OC(=O)c3cc(O)c(O)c(O)c3)c2)[C@H](OC(=O)c2cc(O)c(O)c(OC(=O)c3cc(O)c(O)c(O)c3)c2)[C@@H](OC(=O)c2cc(O)c(O)c(OC(=O)c3cc(O)c(O)c(O)c3)c2)[C@@H]1OC(=O)c1cc(O)c(O)c(OC(=O)c2cc(O)c(O)c(O)c2)c1)c1cc(O)c(O)c(OC(=O)c2cc(O)c(O)c(O)c2)c1`
Resp: 0.898 µM

Req: Provide only the value of recorded GI50 for `CCN1CCN(CC(=O)N2c3cccc4cccc(c34)N(C(=O)CN3CCN(CC)CC3)C2c2cn(-c3ccccc3)nc2-c2cccc([N+](=O)[O-])c2)CC1`
Resp: 1.42 µM

Req: Provide only the value of recorded GI50 for `S=P(N1CC1)(N1CC1)N1CC1`
Resp: 529 µM

Req: Provide only the value of recorded GI50 for `COc1cc2c(cc1OCCCC(=O)Nc1ccc3ccc4cccc5ccc1c3c45)N=C[C@@H]1CCCN1C2=O`
Resp: 0.0135 µM

Req: Provide only the value of recorded GI50 for `OCC#Cc1ccccc1C#CCCCCCC#Cc1ccccc1C#CCO`
Resp: 17.2 µM

Req: Provide only the value of recorded GI50 for CCCCCCCCCCCCC(O)[C@H]1CC[C@H](C(O)CCCCCC(=O)CCCCC2CC(C(C)=O)C(=O)O2)O1 (stereo partly specified)
Resp: 2.8 µM

* * *

Tested on: OVCAR-5 ovarian
testDetails: NCI tumour cell line growth inhibition, 48 h; in the data active = GI50 below about 0.43 µM; inactive = the rest
Select the matching outcome among active, inactive

- compound: "CN(C)CCCNC(=O)c1cc(NC(=O)c2cc(NC(=O)CCNS(=O)(=O)c3ccc4c(c3)C(=O)c3ccccc3C4=O)cn2C)cn1C"
  qualitativeLabel: "inactive"

Req: Identify the outcome logged in this assay for the compound shown: `Cc1ccc(O)c(NC(=O)c2ccc(CNc3ccnc(C(F)(F)F)c3)cc2)c1`
Resp: inactive

Req: Identify the outcome logged in this assay for the compound shown: `COc1cc(-c2nc(SCCC(C)C)nc(Nc3ccc(S(N)(=O)=O)cc3)c2C#N)cc(OC)c1OC`
Resp: inactive

* * *

System: SK-MEL-28 melanoma
testDetails: NCI tumour cell line growth inhibition, 48 h
measureName: TGI

- compound: "O=C1C(=O)c2cccnc2-c2ncccc21"
  TGI: "1.8 µM"

Req: Provide only the value of recorded TGI for `C[N+]1=C(/C=C\C=C\c2ccccc2)C(C)(C)c2ccccc21`
Resp: 3.46 µM

Req: Provide only the value of recorded TGI for `O=C1c2ccc(O)c(O)c2C(=O)c2c(O)ccc(O)c21`
Resp: > 100 µM

* * *

Below: a set of entries, each annotated with reported TGI.
Test system: HL-60(TB) leukemia
testDetails: NCI tumour cell line growth inhibition, 48 h
Enter your answer as a number in µM; do not include the unit.

- compound: "Cn1c2ccccc2c(=O)c2cccc(C(=O)NC(CCC(N)=O)C(=O)O)c21 (centres undefined)"
  measuredNumber: 0.678
- compound: "O=C1Oc2cc(O)cc(/C=C/c3ccc(O)cc3)c2[C@@]12c1c(O)cc(O)cc1OC2c1cccc(O)c1 (some centres undefined)"
  measuredNumber: 97.9
- compound: "O=C1c2ccccc2-c2c1c1ccccc1c(=O)n2CCCn1ccnc1"
  measuredNumber: 2.18

Req: Provide only the value of recorded TGI for `CCN1CCN(CC(=O)N2c3cccc4cccc(c34)N(C(=O)CN3CCN(CC)CC3)C2c2cn(-c3ccccc3)nc2-c2cccc([N+](=O)[O-])c2)CC1`
Resp: 3.85

Req: Provide only the value of recorded TGI for CCCCCCCCCCCCCCCCCCN(C)CC(COP(=O)([O-])OCC[N+](C)(C)C)OC (centres undefined)
Resp: 11.1

* * *

System: RXF 393 renal
testDetails: NCI tumour cell line growth inhibition, 48 h; in the data active = GI50 below about 0.43 µM; inactive = the rest
Select the matching outcome among T (active), F (inactive)

- testSmiles: "Cc1cnc(C(=O)Nc2nc3ccc(S(=O)(=O)Nc4ccc(C5(C(F)(F)F)CC5)cc4)cc3[nH]2)cn1"
  qualitativeLabel: "T"
- testSmiles: "COC(C)(C)C/C=C/C(C)=C/C=C/C(C)=C\\C=C\\C(C)=C\\C=C\\C=C(C)\\C=C\\C=C(C)\\C=C\\C=C(C)\\C=C\\CC(C)(C)OC"
  qualitativeLabel: "F"

Req: Identify the outcome logged in this assay for the compound shown: `C[N+]1=C(/C=C\C=C\c2ccccc2)C(C)(C)c2ccccc21`
Resp: F

Req: Identify the outcome logged in this assay for the compound shown: `CN(C)c1ccc(/C=C/c2cc[n+](C)c(/C=C/c3ccc(N(C)C)cc3)c2)cc1`
Resp: T

* * *

System: OVCAR-4 ovarian
testDetails: NCI tumour cell line growth inhibition, 48 h
measureName: TGI

- compound: "CCC(C#N)NCc1cccc(CNC(C#N)CC)c1 (stereo unspecified)"
  result: "> 100 µM"

Req: Look up OVCAR-4 ovarian data: TGI of `CCOC(=O)c1ccc(N=c2sc3ccccc3nc2Nc2ccc(C(=O)OCC)cc2)cc1` , then report it.
Resp: > 100 µM

Req: Look up OVCAR-4 ovarian data: TGI of `COc1ccc(C(=O)/C=C/c2cc(O)c(O)c(F)c2F)c(OC)c1` , then report it.
Resp: > 100 µM

Req: Look up OVCAR-4 ovarian data: TGI of `O=c1c(O)c(-c2cc(O)c(O)c(O)c2)oc2cc(O)cc(O)c12` , then report it.
Resp: 30.2 µM

Req: Look up OVCAR-4 ovarian data: TGI of `CC(C)(c1ccccc1)c1ccc(OC#N)cc1` , then report it.
Resp: > 100 µM

Req: Look up OVCAR-4 ovarian data: TGI of `COc1ccc2nc(-c3ccc(O)cc3)sc2c1` , then report it.
Resp: 44.5 µM

* * *

Tested on: MOLT-4 leukemia
testDetails: NCI tumour cell line growth inhibition, 48 h
Below: a set of entries, each annotated with reported TGI.

Check out these entries, answers already filled in.
- compound: "Cc1cc(C)c(-n2c(-c3ccc(Br)cc3)cs/c2=N\\N=C2C=C(C(C)(C)C)C(=O)C(C(C)(C)C)=C2)c(C)c1"
  TGI: "> 100 µM"
- compound: "Cc1cn(-c2cc(NC(=O)c3ccc(C)c(Nc4nccc(-c5cccnc5)n4)c3)cc(C(F)(F)F)c2)cn1"
  TGI: "> 37.2 µM"

Req: Provide only the value of recorded TGI for COC(=O)C1(C)C=CC(=O)C2(C)C1C(O)C1OC3CC(c4ccoc4)C(C)=C3C1(C)C2CC(=O)O (centres undefined)
Resp: > 100 µM

Req: Provide only the value of recorded TGI for CC(=O)OCC1OC(n2c(-c3ccc(C)cc3)cc(-c3ccccc3)c(C#N)c2=S)C(OC(C)=O)C(OC(C)=O)C1OC(C)=O (centres undefined)
Resp: > 100 µM

Req: Provide only the value of recorded TGI for `O=C(O)CCc1nn2c(nc1=O)sc1ccc3ccccc3c12`
Resp: > 100 µM

* * *

Below: a set of entries, each annotated with reported TGI.
Tested on: DU-145 prostate
testDetails: NCI tumour cell line growth inhibition, 48 h
Enter your answer as a number in µM; do not include the unit.

Check out these entries, answers already filled in.
- molecule: "O=C1C(c2c(O)[nH]c3ccc(Br)cc23)=Nc2ccccc21"
  unitLabel: "µM"
  measuredNumber: 27.2
- molecule: "CSc1nc(SC)c2c(CO)c(Br)n(Cc3ccccc3)c2n1"
  unitLabel: "µM"
  measuredNumber: 77.8
- molecule: "CN(C)c1ccc(/C=C/c2cc[n+](C)c(/C=C/c3ccc(N(C)C)cc3)c2)cc1"
  unitLabel: "µM"
  measuredNumber: 11
- molecule: "C=CC(Cl)(CBr)CCC(Br)C(C)(C)Cl (stereo unspecified)"
  unitLabel: "µM"
  measuredNumber: 42.8

Req: Provide only the value of recorded TGI for OC(c1cc(C23CC4CC(CC(C4)C2)C3)nc2c(Cl)cc(Cl)cc12)C1CCCCN1 (stereo unspecified)
Resp: 3.29

* * *

Test system: CCRF-CEM leukemia
testDetails: NCI tumour cell line growth inhibition, 48 h; in the data active means GI50 below about 0.43 µM; inactive means the rest
Select the matching outcome among true = active, false = inactive

Record excerpt, results attached:
- molecule: "Cc1ncc(C(=O)Nc2ccc(CN3CCN(C)CC3)c(C(F)(F)F)c2)cc1C#Cc1cnc(N)cc1C#N"
  qualitativeLabel: "false"
- molecule: "COC(C)(C)C/C=C/C(C)=C/C=C/C(C)=C\\C=C\\C(C)=C\\C=C\\C=C(C)\\C=C\\C=C(C)\\C=C\\C=C(C)\\C=C\\CC(C)(C)OC"
  qualitativeLabel: "false"
- molecule: "COc1cc(-c2nc(SCCC(C)C)nc(Nc3ccc(S(N)(=O)=O)cc3)c2C#N)cc(OC)c1OC"
  qualitativeLabel: "false"

// switching to the query molecule
Req: Identify the outcome logged in this assay for the molecule shown: `CCCCCCCc1cc2c3c(nc4ccccc42)C(=O)c2cccnc2-c3n1`
Resp: false
